- System: Enterococcus faecalis ATCC29212, vancomycin-susceptible strain
- protocol description: MIC, broth microdilution
- Format: cell-based
- settings: Enterococcus faecalis ATCC29212; read-out: MIC E. f. 29212
- Protocol: All target derivatives were assessed for their in vitro antibacterial activities using a broth microdilution assay to test their minimum inhibitory concentrations (MICs) against six Gram-positive strains (S. aureus ATCC31007, S. aureus ATCC25923, S. aureus ATCC43300, E. faecalis ATCC29212, B. subtilis ATCC9372, and S. epidermidis ATCC12228) and four Gram-negative strains (A. baumannii ATCC19606, K. pneumonia ATCC10031, E. coli ATCC25922, and P. aeruginosa ATCC27853). […]
Listed here are compounds together with their documented MIC.
metric name: MIC (mg/L)

                                   compound  metric_name  data_value
0  CC(=O)c1ccc2c(c1OCCCNCCN(C)C)C=CC(C)(CCC=C(C)C)O2 (stereo not shown)          MIC           8
1  CC[N+](CC)(CC)CCCOc1c2c(c3c(c1C(C)=O)OC(C)(CCC=C(C)C)C=C3)OC(C)(CCC=C(C)C)C=C2 (stereo not shown)          MIC           4
2  CC(=O)c1ccc2c(c1OCCCN(C)CC(C)(C)CN(C)C)C=CC(C)(CCC=C(C)C)O2 (stereo not shown)          MIC           8
3  CC(=O)c1ccc2c(c1OCCCN1CCN(C(C)=O)CC1)C=CC(C)(CCC=C(C)C)O2 (stereo not shown)          MIC          32

Data origin, for the record: paper PMC11350758
